# Protocol details: Comparative PK of Int 1-4 versus gemcitabine in rat plasma (study i)
# Format: in vivo, Sprague-Dawley rats
# Condition description: plasma, Sprague-Dawley rat, after iv gemcitabine 4.47 mg/kg; read-out: Vdss
Observation type: Vd (L/kg)
Note: unit L/kg is implicit; provide only the numeric part.

Q: Name the recorded Vd for Nc1ccn([C@@H]2O[C@H](CO)[C@@H](O)C2(F)F)c(=O)n1 .
Result: 1.21

----------
# Protocol details: Comparative plasma PK of Compound 1 versus Int 1-4 in male CD-1 mice (study b)
# Format: in vivo
# Condition description: male, CD-1, mouse, iv, 10 mg/kg, after iv Int 1-4 10.0 mg/kg, Formulation 2
Observation type: clearance (mL/min/kg)
# value in mL/min/kg; strip the unit string

Q: Would you mind telling me what clearance value was observed for COc1cc(OC)c2oc(COC(=O)Nc3ccn([C@@H]4O[C@H](CO)[C@@H](O)C4(F)F)c(=O)n3)cc2c1 ?
Result: 38.9

----------
# Protocol details: Comparative plasma PK of Compound 1 versus Int 1-4 in male CD-1 mice (study b)
# Format: in vivo
# Condition description: male, CD-1, mouse, iv, 10 mg/kg, after iv Int 1-4 10.0 mg/kg, Formulation 1, read-out: Vdss
# Method: Objectives: to compare the plasma pharmacokinetics and stability of Compound 1 with its non-phosphorylated SMDC analog (Int 1-4) and in plasma following a single intravenous infusion administration of Compound 1 at 11.6 mg/kg and 23.2 mg/kg with Int 1-4 (formulation F1 & F2) at 10.0 mg/kg in male CD-1 mice PK measurements: compare PK parameters C0, CL, Vdss, Cmax, tmax, t1/2, AUC(0-t), AUC(0-inf), MRT(0-t), MRT(0-inf) for Compound 1 and Int 1-4
Observation type: Vd (L/kg)
Answer format: numeric, L/kg implied, no suffix.

Q: I would be grateful if you could share the reported Vd for COc1cc(OC)c2oc(COC(=O)Nc3ccn([C@@H]4O[C@H](CO)[C@@H](O)C4(F)F)c(=O)n3)cc2c1 .
Result: 2.01

----------
AUC(0-t) for assorted molecules
# Protocol details: Int 1-4 and gemcitabine comparative PK in male cynomolgus monkey (study g)
# Assay type: in vivo
# Condition description: plasma, male cynomolgus monkey, after iv Int 1-4 10 mg/kg (study g)
Kindly provide the numeric value in ng·h/mL only, without the unit symbol.

COc1cc(OC)c2oc(COC(=O)Nc3ccn([C@@H]4O[C@H](CO)[C@@H](O)C4(F)F)c(=O)n3)cc2c1 :: 11900

Next up:
Q: Value lookup for AUC(0-t); key = Nc1ccn([C@@H]2O[C@H](CO)[C@@H](O)C2(F)F)c(=O)n1
Result: 16.2

----------
# Protocol details: Int 1-4 and gemcitabine comparative PK in male cynomolgus monkey (study g)
# Type: in vivo
# Condition description: plasma, male cynomolgus monkey, after iv Int 1-4 10 mg/kg (study g); read-out: MRT0-last
Listed next: entries and their corresponding MRT last.
Kindly provide the numeric value in min only, without the unit symbol.

Nc1ccn([C@@H]2O[C@H](CO)[C@@H](O)C2(F)F)c(=O)n1 :: 12.6

Q: So what does the record say about MRT last for COc1cc(OC)c2oc(COC(=O)Nc3ccn([C@@H]4O[C@H](CO)[C@@H](O)C4(F)F)c(=O)n3)cc2c1 ?
Result: 22.8

----------
# Protocol details: Comparative dog plasma PK of Int 1-4 versus gemcitabine (study k)
# Format: in vivo
# Condition description: male beagle dog, after iv gemcitabine 5.29 mg/kg, read-out: Cmax
Observation type: Cmax (ng/mL)
Write the value in ng/mL as a bare number.

Q: Recorded Cmax for Nc1ccn([C@@H]2O[C@H](CO)[C@@H](O)C2(F)F)c(=O)n1 , please?
Result: 8620

----------
# Protocol details: Comparative plasma PK of Compound 1 versus Int 1-4 in male CD-1 mice (study b)
# Type: in vivo
# Condition description: male, CD-1, mouse, iv, 10 mg/kg, after iv Int 1-4 10.0 mg/kg, Formulation 2
Observation type: AUC(0-t) (ng·h/mL)
# value in ng·h/mL; strip the unit string

COc1cc(OC)c2oc(COC(=O)Nc3ccn([C@@H]4O[C@H](CO)[C@@H](O)C4(F)F)c(=O)n3)cc2c1 :: 4210

Read the next record carefully.
Q: So what does the record say about AUC(0-t) for Nc1ccn([C@@H]2O[C@H](CO)[C@@H](O)C2(F)F)c(=O)n1 ?
Result: 85.1

----------
# reported MRT last; entries follow
# Protocol details: Comparative dog plasma PK of Int 1-4 versus gemcitabine (study k)
# Format: in vivo
# Condition description: male beagle dog, after iv Int 1-4 5 mg/kg (study k), read-out: MRT0-last
Express your answer in h, writing the number without its unit.

Nc1ccn([C@@H]2O[C@H](CO)[C@@H](O)C2(F)F)c(=O)n1 [Gemcitabine, gemcitabine] :: 2.48

The record that follows has no MRT last shown yet.
Q: Item under review: COc1cc(OC)c2oc(COC(=O)Nc3ccn([C@@H]4O[C@H](CO)[C@@H](O)C4(F)F)c(=O)n3)cc2c1 [Int 1-4] . Reported MRT last?
Result: 0.11

----------
Each item that follows carries a reported MRT last.
# Protocol details: Comparative plasma PK of Compound 1 versus Int 1-4 in male CD-1 mice (study b)
# Assay type: in vivo
# Condition description: male, CD-1, mouse, iv, 10 mg/kg, after iv Int 1-4 10.0 mg/kg, Formulation 2, read-out: MRT0-last
Give the value in h but do not write h after it.

Nc1ccn([C@@H]2O[C@H](CO)[C@@H](O)C2(F)F)c(=O)n1 :: 1.25

Attention now shifts to the item below.
Q: Can you share its MRT last? I mean this molecule: COc1cc(OC)c2oc(COC(=O)Nc3ccn([C@@H]4O[C@H](CO)[C@@H](O)C4(F)F)c(=O)n3)cc2c1
Result: 0.797

----------
Parameter half-life: see the listing below.
# Protocol details: Comparative plasma PK of Compound 1 versus Int 1-4 in male CD-1 mice (study b)
# Assay type: in vivo
# Condition description: male, CD-1, mouse, iv, 10 mg/kg, after iv Int 1-4 10.0 mg/kg, Formulation 1
Your answer should be a plain number; it is taken to be in h.

Nc1ccn([C@@H]2O[C@H](CO)[C@@H](O)C2(F)F)c(=O)n1 [Gemcitabine, gemcitabine] :: 1.62

Next:
Q: Which half-life reading was recorded for the molecule COc1cc(OC)c2oc(COC(=O)Nc3ccn([C@@H]4O[C@H](CO)[C@@H](O)C4(F)F)c(=O)n3)cc2c1 [Int 1-4] ?
Result: 1.18

----------
Form field: AUC(0-inf) (one value per entry).
# Protocol details: Int 1-4 dog plasma PK (study j)
# Format: in vivo
# Condition description: male beagle dog, after iv Int 1-4 20 mg/kg (study j), read-out: AUC0-inf
Numeric answer only, unit ng·h/mL assumed.

COc1cc(OC)c2oc(COC(=O)Nc3ccn([C@@H]4O[C@H](CO)[C@@H](O)C4(F)F)c(=O)n3)cc2c1 [Int 1-4] :: 7940

Moving on to the next molecule.
Q: Entry Nc1ccn([C@@H]2O[C@H](CO)[C@@H](O)C2(F)F)c(=O)n1 [Gemcitabine, gemcitabine] : reported AUC(0-inf) = ?
Result: 7880

----------
# Protocol details: Compound 1 and gemcitabine plasma PK in the male cynomolgus monkey (study h)
# Format: in vivo
# Condition description: plasma, after iv gemcitabine 2.28 mg/kg
Observation type: half-life (min)
Supply the numeric figure in min, leaving out any unit text.

Q: I have this compound here, Nc1ccn([C@@H]2O[C@H](CO)[C@@H](O)C2(F)F)c(=O)n1 , and I need its recorded half-life.
Result: 1.2

----------
Below, each entry is listed alongside its reported Cmax.
# Protocol details: Comparative plasma PK of Compound 1 versus Int 1-4 in male CD-1 mice (study b)
# Type: in vivo
# Condition description: male, CD-1, mouse, iv, 23.2 mg/kg, after iv Compound 1 23.2 mg/kg, read-out: Cmax
Please give a number only; it is taken to be in ng/mL.

COc1cc(OC)c2oc(COC(=O)Nc3ccn([C@@H]4O[C@H](CO)[C@@H](O)C4(F)F)c(=O)n3)cc2c1 :: 29900

The record that follows has no Cmax shown yet.
Q: Any idea what its Cmax is? The compound is Nc1ccn([C@@H]2O[C@H](CO)[C@@H](O)C2(F)F)c(=O)n1
Result: 222

----------
# Protocol details: Comparative plasma PK of Compound 1 versus Int 1-4 in male CD-1 mice (study b)
# Assay type: in vivo
# Condition description: male, CD-1, mouse, iv, 11.6 mg/kg, after iv Compound 1 11.6 mg/kg
Where a name gives a salt, the structure may show the parent alone.
Observation type: C0 (ng/mL)
Kindly provide the numeric value in ng/mL only, without the unit symbol.

Q: Given the entry COc1cc(OC)c2oc(COC(=O)Nc3ccn([C@@H]4O[C@H](COP(=O)(O)O)[C@@H](O)C4(F)F)c(=O)n3)cc2c1 [Compound 1, ammonium salt] , report its measured C0.
Result: 21900
